- tgt: T1, MPP7, Q5T2T1
- T1 sequence (Q5T2T1 134-230, limits assumed, looked up): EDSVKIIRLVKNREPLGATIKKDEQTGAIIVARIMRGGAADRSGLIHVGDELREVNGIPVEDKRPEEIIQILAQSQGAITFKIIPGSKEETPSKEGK
- assay.info: holdup assay
- Design: key: below the threshold = too weak to quantify, mostly under pKd 3.1 to 4
- setup.conditions: plain residues with an end cap or a label only (N-terminal biotin on a linker: ado-ado)
endpoint.label: pKd

>>> print(df.to_string())
                        binder  endpoint_label          test_result
0   LLQEEWETVM [PTH1R, Q03431]             pKd  below the threshold
1  NSTHNLKDYV [CLDN20, P56880]             pKd  below the threshold
2   PALKNGQYWV [CSPG4, Q6UVK1]             pKd                 3.96
3  DLLGGGSDSI [TNRC6B, Q9UPQ9]             pKd  below the threshold
